Molecular target: Serine/threonine-protein kinase PLK2 (Homo sapiens, UniProt Q9NYY3)
Sequence (Q9NYY3 whole entry): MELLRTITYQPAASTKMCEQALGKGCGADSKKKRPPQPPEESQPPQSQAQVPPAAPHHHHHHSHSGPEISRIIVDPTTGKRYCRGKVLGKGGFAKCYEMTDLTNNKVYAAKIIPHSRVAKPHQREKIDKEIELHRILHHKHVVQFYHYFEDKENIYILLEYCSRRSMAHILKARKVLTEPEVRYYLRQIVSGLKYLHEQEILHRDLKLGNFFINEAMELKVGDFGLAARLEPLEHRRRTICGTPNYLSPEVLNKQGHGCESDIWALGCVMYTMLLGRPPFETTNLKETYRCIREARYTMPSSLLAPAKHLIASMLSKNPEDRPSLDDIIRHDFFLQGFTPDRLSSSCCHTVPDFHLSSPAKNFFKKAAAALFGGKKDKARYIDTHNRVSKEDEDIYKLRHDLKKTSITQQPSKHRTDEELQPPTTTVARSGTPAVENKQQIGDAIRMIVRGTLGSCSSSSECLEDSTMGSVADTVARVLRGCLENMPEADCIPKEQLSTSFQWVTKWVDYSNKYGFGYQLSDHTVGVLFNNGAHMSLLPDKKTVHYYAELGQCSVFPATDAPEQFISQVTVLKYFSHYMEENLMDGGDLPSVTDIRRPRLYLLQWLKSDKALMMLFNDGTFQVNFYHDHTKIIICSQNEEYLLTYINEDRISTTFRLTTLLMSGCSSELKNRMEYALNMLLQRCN
Test: Inhibition of Plk2 immunoprecipitated from human HeLa cells using casein substrate after 12 to 26 hrs by autoradiography

| smilesInput | IC50 |
| --- | --- |
| COc1cc(CNCc2ccncc2)ccc1OCc1ccc(Cl)cc1 | > 10 µM |

###

Tested on: HeLa
Assay: Antiproliferative activity against human HeLa cells assessed as growth inhibition after 24 to 72 hrs
Assay type: functional, cell-based
Conditions: Homo sapiens, HeLa; read-out: EC50

| molecule | readoutUnits | resultComparator | EC50 |
| --- | --- | --- | --- |
| COc1ccc(CCNCc2ccc(OCc3ccc(Cl)nc3)c(OC)c2)cc1OC | µM | = | 18 |
| COc1cc(CNCc2cccs2)ccc1OCc1ccc(Cl)nc1 | µM | = | 96 |
| COc1cc(OCc2ccc(Cl)cc2)ccc1CNCc1ccncc1 | µM | = | 0.44 |
| COCCNCc1ccc(OCc2ccc(Cl)nc2)c(OC)c1 | µM | = | 97 |
| COc1cc(CNCCCN(C)C)ccc1OCc1ccc(Cl)nc1 | µM | = | 5 |
| COc1cc(OCc2ccc(Cl)nc2)ccc1CNCc1ccncc1 | µM | = | 3.3 |
| COc1cc(CNCCSc2nnnn2C)ccc1OCc1ccc(Cl)nc1 | µM | = | 86 |
| COc1cc(CNCc2cccnc2)ccc1OCc1ccc(Cl)nc1 | µM | = | 5 |
| COc1cc(CNCc2ccccn2)ccc1OCc1cccc(Cl)c1 | µM | = | 18 |
| COc1ccc(CCNCc2ccc(OCC(=O)N3CCCCC3)c(OC)c2)cc1OC | µM | = | 87 |
| COc1cc(CNCC2CCCO2)ccc1OCc1ccc(Cl)nc1 (stereo not given) | µM | = | 66 |
| CCOc1cc(CNCc2ccncc2)ccc1OCc1ccc(Cl)cc1 | µM | = | 2.5 |
| COc1ccc(CCNCc2ccc(OCc3cccs3)c(OC)c2)cc1OC | µM | = | 18 |
| COc1ccc(CCNCc2ccc(OCC(=O)NC(C)(C)C)c(OC)c2)cc1OC | µM | > | 100 |
| COc1cc(CNCc2ccccn2)ccc1OCc1c(Cl)cccc1Cl | µM | = | 6.1 |
| COc1cc(CNCc2ccncc2)ccc1OCc1cnc(Cl)c(Cl)c1 | µM | = | 0.22 |
| Clc1ccc(COc2ccc(CNCc3ccncc3)cc2)cc1 | µM | = | 4 |
| COc1cc(CNCc2ccncc2)ccc1OCc1cccc(F)c1 | µM | = | 4.8 |
| COc1cc(CNCc2ccc3c(c2)OCO3)ccc1OCc1ccc(Cl)nc1 | µM | = | 71 |
| COc1cc(CNCc2ccccn2)ccc1OCc1ccccc1Cl | µM | = | 22 |
| COc1cc(CNCCc2ccc(S(N)(=O)=O)cc2)ccc1OCc1ccc(Cl)nc1 | µM | = | 12 |
| COc1cc(CNCCCN2CCOCC2)ccc1OCc1ccc(Cl)nc1 | µM | > | 100 |
| COc1cc(CNCc2ccccc2)ccc1OCc1ccc(Cl)nc1 | µM | = | 90 |
| COc1cc(OCc2cnc(Cl)c(Cl)c2)ccc1CNCc1ccncc1 | µM | = | 0.4 |
| COc1cc(CNCc2ccncc2)ccc1OCc1ccc(Cl)nc1 | µM | = | 0.4 |
| COc1cc(CNCCc2ccncc2)ccc1OCc1ccc(Cl)nc1 | µM | = | 55 |
| COc1cc(CNc2nc[nH]n2)ccc1OCc1ccc(Cl)nc1 | µM | = | 69 |
| COc1cc(CNCCc2ccc(F)cc2)ccc1OCc1ccc(Cl)nc1 | µM | = | 16 |
| COc1ccc(CCNCc2ccc(OCC(=O)N3CCOCC3)c(OC)c2)cc1OC | µM | = | 85 |
| COc1cc(CNCc2ccncc2)ccc1OCc1ccccc1F | µM | = | 5.1 |
| COc1cc(CNCCNC(=O)c2cnon2)ccc1OCc1ccc(Cl)nc1 | µM | = | 24 |
| COc1cc(CNCc2ccncc2)ccc1OCc1ccc(C)cc1 | µM | = | 5 |
| COc1cc(CNCCc2ccccc2F)ccc1OCc1ccc(Cl)nc1 | µM | = | 18 |
| COc1cc(CNCCc2c[nH]c3ccccc23)ccc1OCc1ccc(Cl)nc1 | µM | = | 8 |
| COc1ccc(COc2ccc(CNCc3ccncc3)cc2OC)cc1 | µM | = | 5 |
| COc1cc(CNCc2ccncc2)ccc1OCc1ccc(Cl)cc1 | µM | = | 0.89 |
| COc1cc(CNCCNc2ccnc3cc(Cl)ccc23)ccc1OCc1ccc(Cl)nc1 | µM | = | 2.7 |
| COc1cc(CNCc2ccccn2)ccc1OCc1ccc(Cl)c(Cl)c1 | µM | = | 13 |
| COc1cc(CNCc2ccncc2)ccc1OCc1ccc(C(F)(F)F)cc1 | µM | = | 2.4 |
| COc1cc(CNCc2ccncc2)ccc1OCc1ccc(F)cc1 | µM | = | 6.4 |
| COc1cc(CNCc2ccncc2)ccc1OCc1ccc(Cl)c(Cl)c1 | µM | = | 4 |
| COc1cc(CNCc2ccncc2)ccc1OCc1ccc([N+](=O)[O-])cc1 | µM | = | 0.44 |
| COc1cc(CNCCc2ccccc2)ccc1OCc1ccc(Cl)nc1 | µM | = | 61 |
| COc1cc(CNCc2ccncc2)ccc1OCc1ccc(Cl)cc1Cl | µM | = | 3.9 |
| COc1cc(CNCC(=O)c2ccccc2)ccc1OCc1ccc(Cl)nc1 | µM | = | 60 |

Recorded values, source ChEMBL document CHEMBL3352624.
